molecular target: T1, human protein C (PC) zymogen (human, UniProt P04070 43-197; P04070 200-461); experiment: ELISA
T1 construct: Bought
T1 sequence (P04070 43-197, chain 1 of 2): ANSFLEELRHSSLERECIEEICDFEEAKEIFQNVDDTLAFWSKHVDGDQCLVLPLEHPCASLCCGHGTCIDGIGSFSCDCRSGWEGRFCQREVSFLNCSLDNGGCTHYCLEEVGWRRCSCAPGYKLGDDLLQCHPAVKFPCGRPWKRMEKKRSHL
T1 sequence (P04070 200-461, chain 2 of 2): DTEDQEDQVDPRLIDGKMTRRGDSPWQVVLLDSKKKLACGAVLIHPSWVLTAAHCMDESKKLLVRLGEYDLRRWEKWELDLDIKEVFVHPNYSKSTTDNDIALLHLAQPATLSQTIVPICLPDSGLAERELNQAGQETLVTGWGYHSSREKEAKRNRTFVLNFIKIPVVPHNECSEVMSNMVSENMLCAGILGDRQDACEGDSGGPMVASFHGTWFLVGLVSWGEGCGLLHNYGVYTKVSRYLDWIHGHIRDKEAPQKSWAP
attribute measured: binding result

SR16983-R3-P4-E04 (VHH) VHH: QVQLVESGGGLVQAGGSLRLSCAASGRTVGSYAVGWFRQAPGKEREFLAASSRSTGNTVYADSVKGRFTISRDDAKNTLYLQMNSLKPEDTAVYYCATRASINYNYANWPYWGQGTQVTVSS = no binding
LP15 (SR16983-R3-P5-H05) (VHH, not shown: small tags and cut ends, Llama VHH purified from E. coli periplasm) VHH: QLQLVESGGGLVQAGGSLRLSCAASGTTFSFVYMGWYRQAPGNQRDLVARISSDGSTNYADSVKGRFTISGDNAKNTVYLQMNSLKPEDTARYYCFWNGHTNKWGQGTQVTVSS = no binding
